Target: PKC isoenzyme ζ (Homo sapiens, UniProt Q05513)
Construct: made in house; host or cells: baculovirus-insect cell expression system
Sequence (Q05513 whole entry): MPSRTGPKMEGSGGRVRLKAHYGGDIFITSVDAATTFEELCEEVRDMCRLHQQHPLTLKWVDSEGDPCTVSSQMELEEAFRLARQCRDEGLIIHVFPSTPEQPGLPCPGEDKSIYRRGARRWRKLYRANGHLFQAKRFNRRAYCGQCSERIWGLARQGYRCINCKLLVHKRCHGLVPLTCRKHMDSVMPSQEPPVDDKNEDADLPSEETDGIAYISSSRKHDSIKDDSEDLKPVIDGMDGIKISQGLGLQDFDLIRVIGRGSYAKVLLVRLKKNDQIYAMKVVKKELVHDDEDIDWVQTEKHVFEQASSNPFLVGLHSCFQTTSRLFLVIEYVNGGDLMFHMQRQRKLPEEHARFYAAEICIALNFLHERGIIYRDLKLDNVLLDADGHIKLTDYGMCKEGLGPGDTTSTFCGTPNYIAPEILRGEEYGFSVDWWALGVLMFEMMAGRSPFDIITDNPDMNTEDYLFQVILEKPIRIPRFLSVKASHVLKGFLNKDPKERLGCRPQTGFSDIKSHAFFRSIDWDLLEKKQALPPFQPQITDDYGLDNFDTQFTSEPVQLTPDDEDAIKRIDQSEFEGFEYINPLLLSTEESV
Assay: Protein kinase C inhibition assay, PKC isoenzyme ζ
Format: biochemical
Conditions: read-out: IC50 PKC .zeta.
Recorded IC50, one value per entry.

[
  {
    "compound": "Cc1cc(C)nc(NS(=O)(=O)c2cc(N=C3C=C(Nc4ccc(C)c(S(=O)(=O)Nc5cc(C)cc(C)n5)c4)C(=O)c4ccccc43)ccc2C)c1 [Compound 6ag]",
    "IC50": "> 150 µM"
  },
  {
    "compound": "Cc1cc(C)nc(NS(=O)(=O)c2ccc(N=C3C=C(Nc4ccc(S(=O)(=O)Nc5cc(C)cc(C)n5)cc4)C(=O)c4ccccc43)cc2)c1",
    "IC50": "> 150 µM"
  },
  {
    "compound": "N=C(N)NS(=O)(=O)c1ccc(N=C2C=C(Nc3ccc(S(=O)(=O)NC(=N)N)cc3)C(=O)c3ccccc32)cc1",
    "IC50": "> 150 µM"
  }
]

---

Target: PKC isoenzyme α (Homo sapiens)
Construct: made in house; host or cells: baculovirus-insect cell expression system
Assay: Protein kinase C inhibition assay, PKC isoenzyme α
Type: biochemical
Conditions: read-out: IC50 PKC α
Entries and their measured IC50 follow.
property.label: IC50 (µM)

[
  {
    "compound": "COc1ccc(NS(=O)(=O)c2ccc(N=C3C=C(Nc4ccc(S(=O)(=O)Nc5ccc(OC)nn5)cc4)C(=O)c4ccccc43)cc2)nn1 [Compound 6j]",
    "number": 106
  },
  {
    "compound": "Cc1cc(C)nc(NS(=O)(=O)c2cccc(N=C3C=C(Nc4cccc(S(=O)(=O)Nc5cc(C)cc(C)n5)c4)C(=O)c4ccccc43)c2)c1",
    "number": 31
  },
  {
    "compound": "O=C1C(Nc2ccc(S(=O)(=O)NCc3ccccn3)cc2)=CC(=Nc2ccc(S(=O)(=O)NCc3ccccn3)cc2)c2ccccc21 [Compound 3n]",
    "number": 75
  }
]

---

Molecular target: PKC isoenzyme γ (Homo sapiens)
Construct: made in house; host or cells: baculovirus-insect cell expression system
Test: Protein kinase C inhibition assay, PKC isoenzyme γ
Format: biochemical
Conditions: IC50 PKC γ
property.label: IC50 (µM)

[
  {
    "input.smiles": "O=C1C(Nc2ccc(S(=O)(=O)NCCNc3ccc([N+](=O)[O-])cn3)cc2)=CC(=Nc2ccc(S(=O)(=O)NCCNc3ccc([N+](=O)[O-])cn3)cc2)c2ccccc21",
    "number": 22
  }
]

---

Target: PKC isoenzyme ε (Homo sapiens)
Construct: made in house; host or cells: baculovirus-insect cell expression system
Sequence (Q02156 whole entry): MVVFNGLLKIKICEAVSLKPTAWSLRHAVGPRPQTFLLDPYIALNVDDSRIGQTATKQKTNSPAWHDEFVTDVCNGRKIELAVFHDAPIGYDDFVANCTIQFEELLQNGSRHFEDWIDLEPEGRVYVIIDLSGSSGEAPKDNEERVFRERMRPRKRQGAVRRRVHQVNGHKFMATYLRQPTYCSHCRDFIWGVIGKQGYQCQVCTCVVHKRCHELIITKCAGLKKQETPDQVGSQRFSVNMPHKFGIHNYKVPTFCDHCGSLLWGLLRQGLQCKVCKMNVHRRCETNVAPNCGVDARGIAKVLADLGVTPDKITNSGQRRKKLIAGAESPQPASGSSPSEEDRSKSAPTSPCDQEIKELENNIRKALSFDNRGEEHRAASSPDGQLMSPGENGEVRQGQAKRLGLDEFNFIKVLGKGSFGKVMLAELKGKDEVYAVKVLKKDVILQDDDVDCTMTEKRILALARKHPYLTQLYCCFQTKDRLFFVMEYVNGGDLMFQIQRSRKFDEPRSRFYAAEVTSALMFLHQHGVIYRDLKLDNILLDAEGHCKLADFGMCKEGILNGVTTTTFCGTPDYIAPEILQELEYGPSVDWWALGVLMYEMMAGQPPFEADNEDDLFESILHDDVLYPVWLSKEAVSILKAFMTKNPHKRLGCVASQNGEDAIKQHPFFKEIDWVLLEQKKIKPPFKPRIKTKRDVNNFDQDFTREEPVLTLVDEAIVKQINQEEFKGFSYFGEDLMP
Assay: Protein kinase C inhibition assay, PKC isoenzyme ε
Type: biochemical
Conditions: read-out: IC50 PKC ε
pIC50: −log10 of the molar value.
property.label: pIC50

[
  {
    "compound": "COc1cc(NS(=O)(=O)c2ccc(N=C3C=C(Nc4ccc(S(=O)(=O)Nc5cc(OC)nc(OC)n5)cc4)C(=O)c4ccccc43)cc2)nc(OC)n1 [Compound 3g]",
    "result": "< 3.82"
  },
  {
    "compound": "Cc1cc(C)nc(NC(=O)c2ccc(N=C3C=C(Nc4ccc(C(=O)Nc5nc(C)cc(C)n5)cc4)C(=O)c4ccccc43)cc2)n1 [Compound 3ai]",
    "result": "< 3.98"
  },
  {
    "compound": "O=C1C(Nc2ccc(S(=O)(=O)Nc3ccc(Cl)nn3)cc2)=CC(=Nc2ccc(S(=O)(=O)Nc3ccc(Cl)nn3)cc2)c2ccccc21 [Compound 3l]",
    "result": "< 3.82"
  },
  {
    "compound": "O=C1C(Nc2ccc(S(=O)(=O)Nc3ccccn3)cc2)=CC(=Nc2ccc(S(=O)(=O)Nc3ccccn3)cc2)c2ccccc21 [Compound 3i]",
    "result": "< 3.82"
  },
  {
    "compound": "N=C(N)NS(=O)(=O)c1ccc(N=C2C=C(Nc3ccc(S(=O)(=O)NC(=N)N)cc3)C(=O)c3ccccc32)cc1 [Compound 3ab]",
    "result": "< 3.82"
  },
  {
    "compound": "COc1ccc(NS(=O)(=O)c2ccc(N=C3C=C(Nc4ccc(S(=O)(=O)Nc5ccc(OC)nn5)cc4)C(=O)c4ccccc43)cc2)nn1 [Compound 3j]",
    "result": "< 3.82"
  },
  {
    "compound": "O=C1C(Nc2ccc(S(=O)(=O)NCc3ccccn3)cc2)=CC(=Nc2ccc(S(=O)(=O)NCc3ccccn3)cc2)c2ccccc21 [Compound 6n]",
    "result": 3.83
  },
  {
    "compound": "Cc1nnc(NS(=O)(=O)c2ccc(N=C3C=C(Nc4ccc(S(=O)(=O)Nc5nnc(C)s5)cc4)C(=O)c4ccccc43)cc2)s1 [Compound 3e]",
    "result": "< 3.82"
  },
  {
    "compound": "Cc1cc(C)nc(NS(=O)(=O)c2ccc(N=C3C=C(Nc4ccc(S(=O)(=O)Nc5nc(C)cc(C)n5)cc4)C(=O)c4ccccc43)cc2)n1 [Compound 6c]",
    "result": 4.82
  },
  {
    "compound": "O=C1C(Nc2ccc(S(=O)(=O)Nc3ccc(Cl)nn3)cc2)=CC(=Nc2ccc(S(=O)(=O)Nc3ccc(Cl)nn3)cc2)c2ccccc21 [Compound 6l]",
    "result": "< 3.82"
  },
  {
    "compound": "Cc1ccnc(NS(=O)(=O)c2ccc(N=C3C=C(Nc4ccc(S(=O)(=O)Nc5nccc(C)n5)cc4)C(=O)c4ccccc43)cc2)n1 [Compound 3f]",
    "result": "< 3.82"
  }
]
